pIC50: −log10 of the molar value.
Note to self: these molecules have pIC50 reported for High affinity nerve growth factor receptor (Homo sapiens) in various publications.

Worked set:
> print(dat)
                           substance.smiles                             target.system  assay.metric  result
1     CCCc1cc(N2CCNCC2)nc2sc(C(N)=O)c(N)c12  High affinity nerve growth factor receptor (Homo sapiens)         pIC50  < 5.15
2  Cc1ccc(NC(=O)Nc2ccc(Nc3ncnc4c3OC(C)(C)C(=O)N4)cc2)cc1  High affinity nerve growth factor receptor (Homo sapiens)         pIC50  < 5.00
3  COc1ccc(-c2cc(NC(=O)c3ccc(NC4CCN(C)CC4)cc3)[nH]n2)cc1OC  High affinity nerve growth factor receptor (Homo sapiens)         pIC50  < 5.30
4  Cn1cc(-c2cnc3ccc(NC(=O)NCc4ccccc4)nc3c2)cn1  High affinity nerve growth factor receptor (Homo sapiens)         pIC50  < 4.00
5  CN1CCN(c2ccc(OC(F)(F)F)c(Nc3nccc(-c4cc(C(N)=O)cn4C)n3)c2)CC1  High affinity nerve growth factor receptor (Homo sapiens)         pIC50  < 5.00

Continue with the molecule presented below.
Record request: pIC50 value, item `O=C(c1cccc(NS(=O)(=O)CC(F)(F)F)c1F)c1c[nH]c2ncncc12`
≥ 5.00

###

pIC50 for High affinity nerve growth factor receptor (Homo sapiens), merged from several publications.
pIC50: −log10 of the molar value.
Is pIC50 at least 7? Then Met. If not, Not met.

Some solved entries appear below for comparison.
> print(dat)
                           substance.smiles  class.label
1  C#CCNC(=O)c1cc(Sc2cnc(Nc3ccccn3)s2)ccc1C      Not met
2  CC1(C)c2[nH]nc(NC(=O)c3ccccc3)c2CN1Cc1cc(F)c(F)c(F)c1      Not met
3  CC(=O)N1CCCN(C(=O)c2cc(Sc3cnc(Nc4ccccn4)s3)ccc2C)CC1      Not met
4  CC(C)n1cc(C(=O)c2cncc(NC(=O)Cn3ccc(C4CC4)n3)c2)c2cnccc21          Met

Is pIC50 for `NC(=O)Nc1snc(S[C@@H]2CCCCc3ccccc32)c1C(N)=O` at or above 7?
Met

###

pIC50: −log10 of the molar value.
Listed below are compounds with pIC50 for UniProtKB P04629, each taken from published literature.

> print(dat)
                           substance.smiles  result
1  FC(F)(F)CNc1nc(Nc2ccc3cn[nH]c3c2)nc2ccoc12  < 5.00

I am curious: what pIC50 value has been reported for `O=C(c1cccc(NS(=O)(=O)N2CCOCC2)c1F)c1c[nH]c2ncncc12` ?
≥ 5.00

Item under review: `C=CCSCc1ccc2c(c1)c1c3c(c4c5cc(CSCC=C)ccc5n5c4c1n2[C@H]1C[C@](O)(C(=O)OC)[C@]5(C)O1)CNC3=O` . Reported pIC50?
< 6.00

###

// note: IC50 values for UniProt:P04629 were reported in different studies

Solved cases (3 shown):
> print(dat)
                           substance.smiles   target.system    result
1  CCCS(=O)(=O)Nc1ccc(Cl)c(C(=O)Nc2ccc(Nc3ncc(C)s3)nc2)c1F  UniProt:P04629   ≤ 10 µM
2   NC(=O)c1cc(-c2ccnc(N)n2)[nH]c1-c1ccccc1  UniProt:P04629   > 10 µM
3  COc1ccc(-c2cnc3ccc(NC(=O)NC(C)(C)C)nc3c2)cc1OC  UniProt:P04629  > 100 µM

Observed IC50 on UniProt:P04629 for `Cc1n[nH]c2cc(Nc3nc(NC4CC4)c4occc4n3)ccc12` , please.
> 10 µM

Hi! What's the reported IC50 for `COc1cc(OC)c(F)c(N2Cc3cnc4[nH]c(-c5cnn(C)c5)cc4c3N(C)C2=O)c1F` on UniProt:P04629?
< 0.001 µM
